experiment: Phase I study: plasma pharmacokinetics of orally administered Compound 1; assay type: in vivo, human; settings: human, plasma, oral, 275 mg, 275 mg QD, Day 4, Mean
measured.property: Tmax (h)
Return type: number; implicit unit h.

Check the records and state Tmax for Cc1cc2c(C(N)=O)cccc2n1-c1nc2c(c(NCc3ccccc3)n1)CCCN2
3.6

---

What IC50 was measured for each of the following?
system: Capan-1 (Pancreas); experiment: Cell Titer-Glo viability: single agent IC50 and Compound 1 + PARP inhibitor matrix (Bliss); assay type: cell-based; conditions: Homo sapiens, 72 h, single agent, read-out: Absolute IC50
Answer format: numeric, µM implied, no suffix.

Input Cc1cc2c(C(N)=O)cccc2n1-c1nc2c(c(NCc3ccccc3)n1)CCCN2 , output reported IC50.
0.405

// fetch IC50 given entry Cn1ncnc1[C@H]1c2n[nH]c(=O)c3cc(F)cc(c23)N[C@@H]1c1ccc(F)cc1
2.64

---

test: Phase I study: plasma pharmacokinetics of orally administered Compound 1; type: in vivo, human; settings: human, plasma, oral; 450 mg QD, Day 4, Mean
measured.property: AUC(0-t) (µM·h)
The figure you give is taken to be in µM·h; do not add the unit.

Output measured AUC(0-t) for this item: Cc1cc2c(C(N)=O)cccc2n1-c1nc2c(c(NCc3ccccc3)n1)CCCN2 [Compound 1]
35.2

---

tested on: MOML-13 cell line; assay: Cell Titer-Glo viability, fixed agent + dose response agent combinations; format: cell-based, human; conditions: Homo sapiens, MOML-13; fixed agent Decitabine - 2.5 nM; read-out: IC50
measured.property: IC50

Identify the reported IC50 for the following entry. Cc1cc2c(C(N)=O)cccc2n1-c1nc2c(c(NCc3ccccc3)n1)CCCN2
121 nM

---

assay: Phase I study: plasma pharmacokinetics of orally administered Compound 1; type: in vivo, human; settings: human, plasma, oral, 350 mg, 350 mg QD, Day 1, Mean
measured.property: half-life (min)
Please give a number only; it is taken to be in min.

Retrieve half-life measured for Cc1cc2c(C(N)=O)cccc2n1-c1nc2c(c(NCc3ccccc3)n1)CCCN2 and print it.
269

---

assay: Phase I study: plasma pharmacokinetics of orally administered Compound 1; assay type: in vivo, human; conditions: human, plasma, oral, 750 mg, 750 mg QD, Day 4, Mean
measured.property: Tmax
Note to self: number, then unit, no commentary.

// Input: Cc1cc2c(C(N)=O)cccc2n1-c1nc2c(c(NCc3ccccc3)n1)CCCN2 . Output its Tmax only.
2.5 h

---

test: Phase I study: plasma pharmacokinetics of orally administered Compound 1; assay type: in vivo, human; conditions: human, plasma, oral, 175 mg, 175 mg QD, Day 4, Mean
measured.property: half-life (h)
Numeric answer only, unit h assumed.

Let me know recorded half-life for Cc1cc2c(C(N)=O)cccc2n1-c1nc2c(c(NCc3ccccc3)n1)CCCN2 , thanks.
6.01

---

test system: HL-60 cell line; assay: Cell Titer-Glo viability, fixed agent + dose response agent combinations; format: cell-based, human; conditions: Homo sapiens, HL-60, HL-60; fixed agent Decitabine - 1700 nM; read-out: IC50
measured.property: pIC50
To interpret pIC50, take it as minus log10 of a concentration measured in moles per litre.

Consider the compound Cc1cc2c(C(N)=O)cccc2n1-c1nc2c(c(NCc3ccccc3)n1)CCCN2 . State its measured pIC50.
6.49

The origin of these recorded values is patent US20250049800A1.
